Test Target: Thrombopoietin receptor (Homo sapiens)
Procedure Summary: Agonist activity at human thrombopoietin receptor in Ba/F3 cells assessed as activation of Stat5 response element-driven reporter gene expression
Please go through the items and note down their pEC50.
Answers are plain numbers, as −log10 of the molar value.

Example entries begin here.
* CN(C)c1ccc(-c2ccc3c4c([nH]c3c2)-c2cc(O)c(C(=O)O)cc2CC4)cc1 | 6.55
* Cc1ccc(-c2ccc3c4c([nH]c3c2)-c2cc(O)c(C(=O)O)cc2CC4)cc1C | 7.19
* O=C(O)c1cc2c(cc1O)-c1[nH]c3ccc(C(F)(F)F)cc3c1CC2 | 6.48

Moving on to the next molecule.
The recorded pEC50 with Thrombopoietin receptor (Homo sapiens) for O=C(O)c1cc2c(cc1O)-c1[nH]c3cc(-c4ccccc4)ccc3c1CC2 was 6.43

====

Test Target: Thrombopoietin receptor (Homo sapiens) (UniProt P40238)
Procedure Summary: Agonist activity at human thrombopoietin receptor in Ba/F3 cells assessed as activation of Stat5 response element-driven reporter gene expression relative to 30 ng/mL thrombopoietin
Assay type: functional, cell-based
Condition Details: BaF3
Measurement Type: Efficacy (%)
Give bare numbers, in %.

Example entries begin here.
• O=C(O)c1ccc2c3c([nH]c2c1)-c1cc(O)c(C(=O)O)cc1CC3 = 74
• O=C(O)c1cc2c(cc1O)-c1[nH]c3ccc(C(F)(F)F)cc3c1CC2 = 115
• O=C(O)c1cc2c(cc1O)-c1[nH]c3c(F)ccc(C(F)(F)F)c3c1CC2 = 101
• CCCCc1ccc(-c2ccc3c4c([nH]c3c2)-c2cc(O)c(C(=O)O)cc2CC4)cc1 = 143
• Cc1cc(C)cc(-c2ccc3c4c([nH]c3c2)-c2cc(O)c(C(=O)O)cc2CC4)c1 = 128
• O=C(O)c1cc2c(cc1O)-c1[nH]c3ccc(-c4ccccc4)cc3c1CC2 = 68
• CCCCc1ccc(-c2ccc3c4c([nH]c3c2)-c2ccc(C(=O)N(C)C)cc2CC4)cc1 = 132
• CCCCc1ccc(-c2ccc3c4c([nH]c3c2F)-c2ccc(C(=O)O)cc2CC4)cc1 = 140

Could you report Efficacy for every entry in the following list?
1. CCCOc1ccc(-c2ccc3c4c([nH]c3c2)-c2cc(O)c(C(=O)O)cc2CC4)cc1
2. Cc1ccc(-c2ccc3c4c([nH]c3c2)-c2cc(O)c(C(=O)O)cc2CC4)cc1C
3. COC(=O)c1cc2ccc3c4ccccc4[nH]c3c2cc1O
4. Cc1cccc(-c2ccc3c4c([nH]c3c2)-c2cc(O)c(C(=O)O)cc2CC4)c1
5. Cc1ccc2c(c1)[nH]c1c3cc(O)c(C(=O)O)cc3ccc21
6. CCCCc1ccc(-c2ccc3c4c([nH]c3c2)-c2ccc(C(N)=O)cc2CC4)cc1
7. Cc1ccc(-c2ccc3c4c([nH]c3c2)-c2cc(O)c(C(=O)O)cc2CC4)cc1

output:
1. 129
2. 127
3. 11
4. 128
5. 76
6. 111
7. 154

====

Test Target: Thrombopoietin receptor (Homo sapiens)
Sequence (P40238 whole entry): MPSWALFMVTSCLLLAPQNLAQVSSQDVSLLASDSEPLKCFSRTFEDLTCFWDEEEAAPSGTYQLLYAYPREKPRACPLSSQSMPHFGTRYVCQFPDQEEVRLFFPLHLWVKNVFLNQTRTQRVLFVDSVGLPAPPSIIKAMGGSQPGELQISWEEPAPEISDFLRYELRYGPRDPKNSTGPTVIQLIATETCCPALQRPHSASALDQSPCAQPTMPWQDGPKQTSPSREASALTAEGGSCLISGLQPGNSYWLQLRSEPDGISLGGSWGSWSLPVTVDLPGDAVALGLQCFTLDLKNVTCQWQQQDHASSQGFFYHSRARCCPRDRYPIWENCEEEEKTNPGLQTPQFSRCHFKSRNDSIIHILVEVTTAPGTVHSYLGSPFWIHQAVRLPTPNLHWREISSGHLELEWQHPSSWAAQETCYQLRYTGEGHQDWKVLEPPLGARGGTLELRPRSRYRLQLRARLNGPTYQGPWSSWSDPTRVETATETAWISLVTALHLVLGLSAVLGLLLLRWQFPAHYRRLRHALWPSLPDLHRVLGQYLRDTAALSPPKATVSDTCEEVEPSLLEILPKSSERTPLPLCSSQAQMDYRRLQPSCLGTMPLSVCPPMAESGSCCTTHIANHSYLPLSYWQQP
Procedure Summary: Agonist activity at human thrombopoietin receptor in Ba/F3 cells assessed as activation of Stat5 response element-driven reporter gene expression
Please go through the items and note down their pEC50.
Answers are plain numbers, as −log10 of the molar value.

- Cc1cccc(-c2ccc3c4c([nH]c3c2)-c2cc(O)c(C(=O)O)cc2CC4)c1: 6.71
- Cc1cc(-c2ccc3c4c([nH]c3c2)-c2cc(O)c(C(=O)O)cc2CC4)ccc1F: 7.46
- O=C(O)c1cc2c(cc1O)-c1[nH]c3cc(-c4cccc(C(F)(F)F)c4)ccc3c1CC2: 6.83
- O=C(O)c1cc2c(cc1O)-c1[nH]c3c(F)ccc(C(F)(F)F)c3c1CC2: 6.10
- Cc1cccc(C)c1-c1ccc2c3c([nH]c2c1)-c1cc(O)c(C(=O)O)cc1CC3: 6.63
- O=C(O)c1cc2c(cc1O)-c1[nH]c3ccc(-c4ccccc4)cc3c1CC2: 6.24
- CCCCc1ccc(-c2ccc3c4c([nH]c3c2)-c2ccc(-c3nnn[nH]3)cc2CC4)cc1: 6.92
- Cc1ccc2c(c1)[nH]c1c3cc(O)c(C(=O)O)cc3ccc21: 6.06

Could you report pEC50 for every entry in the following list?
1. O=C(O)c1ccc2c3c([nH]c2c1)-c1cc(O)c(C(=O)O)cc1CC3
2. CCCCc1ccc(-c2ccc3c4c([nH]c3c2)-c2ccc(C(=O)N(C)C)cc2CC4)cc1
3. CCCOc1ccc(-c2ccc3c4c([nH]c3c2)-c2cc(O)c(C(=O)O)cc2CC4)cc1
4. CCCCc1ccc(-c2ccc3c4c([nH]c3c2)-c2cc(O)c(C(=O)O)cc2CC4)cc1
5. O=C(O)c1cc2c(cc1O)-c1[nH]c3c(C(F)(F)F)cccc3c1CC2
6. COCc1ccc(-c2ccc3c4c([nH]c3c2)-c2cc(O)c(C(=O)O)cc2CC4)cc1
7. CCCCc1ccc(-c2ccc3c4c([nH]c3c2)-c2ccc(C(N)=O)cc2CC4)cc1

output:
1. 5.11
2. 6.90
3. 7.39
4. 7.59
5. 5.11
6. 6.34
7. 7.12

Could you report pEC50 for every entry in the following list?
1. O=C(O)c1cc2ccc3c4ccc(C(F)(F)F)cc4[nH]c3c2cc1O
2. Cc1cc(C)cc(-c2ccc3c4c([nH]c3c2)-c2cc(O)c(C(=O)O)cc2CC4)c1

output:
6.84
7.17

====

Test Target: Thrombopoietin receptor (Homo sapiens)
Sequence (P40238 whole entry): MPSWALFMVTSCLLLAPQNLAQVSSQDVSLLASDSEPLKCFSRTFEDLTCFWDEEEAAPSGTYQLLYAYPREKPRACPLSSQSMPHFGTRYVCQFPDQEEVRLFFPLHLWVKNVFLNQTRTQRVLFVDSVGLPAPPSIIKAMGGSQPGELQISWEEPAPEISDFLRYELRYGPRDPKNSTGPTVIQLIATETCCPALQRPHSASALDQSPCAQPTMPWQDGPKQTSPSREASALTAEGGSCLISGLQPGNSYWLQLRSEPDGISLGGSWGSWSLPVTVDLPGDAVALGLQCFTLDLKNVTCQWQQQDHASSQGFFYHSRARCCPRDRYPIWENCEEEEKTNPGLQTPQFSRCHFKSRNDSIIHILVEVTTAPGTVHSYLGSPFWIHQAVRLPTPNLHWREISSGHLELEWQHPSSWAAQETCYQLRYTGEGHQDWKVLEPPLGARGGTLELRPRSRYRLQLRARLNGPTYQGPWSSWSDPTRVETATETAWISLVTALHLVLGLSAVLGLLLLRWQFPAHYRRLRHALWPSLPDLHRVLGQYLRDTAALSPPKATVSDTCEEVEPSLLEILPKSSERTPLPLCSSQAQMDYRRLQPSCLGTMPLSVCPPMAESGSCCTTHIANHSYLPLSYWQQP
Procedure Summary: Agonist activity at human thrombopoietin receptor in Ba/F3 cells assessed as activation of Stat5 response element-driven reporter gene expression
// classify: if (EC50 < 0.5 µM) Y else N

Consider the worked cases shown below.
- CCCCc1ccc(-c2ccc3c4c([nH]c3c2F)-c2ccc(C(=O)O)cc2CC4)cc1: Y
- COc1cc2c(ccc3c4ccccc4[nH]c23)cc1C(=O)O: N
- OCc1cc2ccc3c4ccccc4[nH]c3c2cc1O: N
- O=C(O)c1cc2c(cc1O)-c1[nH]c3cccc(-c4ccccc4)c3c1CC2: N
- O=C(O)c1cc2c(cc1O)-c1[nH]c3cc(C(F)(F)F)ccc3c1CC2: Y

input: Does the reported EC50 of Cc1ccc(-c2ccc3c4c([nH]c3c2)-c2cc(O)c(C(=O)O)cc2CC4)cc1 stay below 0.5 µM?
output: Y

input: Does the reported EC50 of COC(=O)c1cc2ccc3c4ccccc4[nH]c3c2cc1O stay below 0.5 µM?
output: N

input: Does the reported EC50 of O=C(O)c1cc2c(cc1O)-c1[nH]c3cc(C4CCCCC4)ccc3c1CC2 stay below 0.5 µM?
output: N

input: Does the reported EC50 of Cc1ccc2c(c1)[nH]c1c3cc(O)c(CC(=O)O)cc3ccc21 stay below 0.5 µM?
output: N

input: Does the reported EC50 of CCCOc1cccc(-c2ccc3c4c([nH]c3c2)-c2cc(O)c(C(=O)O)cc2CC4)c1 stay below 0.5 µM?
output: Y

input: Does the reported EC50 of O=C(O)c1cc2ccc3c4ccccc4[nH]c3c2cc1O stay below 0.5 µM?
output: N
